System: rodent lifetime carcinogenesis bioassay, tumor incidence TD50
assay.name: carcinogenic potency in animals, long-term in vivo studies, CPDB compilation (AID 1745844)
measurement.context: rat; strain Sprague-Dawley; both sexes; in feed; site: any site (literature study); lesion: malignant tumor; dosed 133 weeks; study length 142 weeks
reported.property: TD50 (mg/kg/day)
Lab book: enter the figure in mg/kg/day, no units written.

Quick one: TD50 for Cc1ccccc1S(N)(=O)=O ?
13300

---

Test system: rodent lifetime carcinogenesis bioassay, tumor incidence TD50
assay.name: carcinogenic potency in animals, long-term in vivo studies, CPDB compilation (AID 1745844)
measurement.context: rat; strain Fischer 344; females; by gavage; site: mammary gland; lesion: adenocarcinoma; dosed 40 weeks; study length 104 weeks
reported.property: TD50

Quick one: TD50 for CCCCN(N=O)C(N)=O ?
0.758 mg/kg/day

---

Tested on: rodent lifetime carcinogenesis bioassay, tumor incidence TD50
assay.name: carcinogenic potency in animals, long-term in vivo studies, CPDB compilation (AID 1745844)
measurement.context: rat; strain Fischer 344; males; in drinking water; site: thyroid gland; lesion: follicular-cell adenoma; dosed 104 weeks; study length 104 weeks
reported.property: TD50

Quick one: TD50 for C=CC(N)=O ?
13.5 mg/kg/day

---

System: rodent lifetime carcinogenesis bioassay, tumor incidence TD50
assay.name: carcinogenic potency in animals, long-term in vivo studies, CPDB compilation (AID 1745844)
measurement.context: rat; strain IcoIbm:OFA (Sprague-Dawley derived); females; inhaled; site: nasal cavity, olfactory epithelium; lesion: several types; types named in the paper; dosed 102 weeks; study length 102 weeks
reported.property: TD50

Reported TD50 for rodent lifetime carcinogenesis bioassay, tumor incidence TD50, given COc1ccc(C(=O)Nc2c(Cl)cncc2Cl)cc1OC1CCCC1 ?
1.18 mg/kg/day

---

Test system: rodent lifetime carcinogenesis bioassay, tumor incidence TD50
assay.name: carcinogenic potency in animals, long-term in vivo studies, CPDB compilation (AID 1745844)
measurement.context: mouse; strain B6C3F1; males; inhaled; site: liver; lesion: hepatocellular adenoma + hepatocellular carcinoma; dosed 95 weeks; study length 95 weeks
reported.property: TD50

Quick one: TD50 for FC(F)=C(F)F ?
91 mg/kg/day

---

Test system: rodent lifetime carcinogenesis bioassay, tumor incidence TD50
assay.name: carcinogenic potency in animals, long-term in vivo studies, CPDB compilation (AID 1745844)
measurement.context: rat; strain ACI; females; in feed; site: pituitary gland; lesion: adenoma; dosed 121 weeks; study length 121 weeks
Active and inactive are the calls of the source. How the calls were made is not given here.
reported.property: TD50

Quick one: TD50 for O=c1c(O)c(-c2ccc(O)c(O)c2)oc2cc(O)cc(O)c12 ?
461000 mg/kg/day (inactive)

---

Test system: rodent lifetime carcinogenesis bioassay, tumor incidence TD50
assay.name: carcinogenic potency in animals, long-term in vivo studies, CPDB compilation (AID 1745844)
measurement.context: rat; strain MRC; females; in drinking water; site: any site (literature study); lesion: several types; types named in the paper; dosed 38 weeks; study length 105 weeks
reported.property: TD50 (mg/kg/day)
Lab book: enter the figure in mg/kg/day, no units written.

Reported TD50 for rodent lifetime carcinogenesis bioassay, tumor incidence TD50, given O=NN1CCSCC1 ?
7.38

---

Test system: rodent lifetime carcinogenesis bioassay, tumor incidence TD50
assay.name: carcinogenic potency in animals, long-term in vivo studies, CPDB compilation (AID 1745844)
measurement.context: mouse; strain B6C3F1; males; inhaled; site: liver; lesion: hepatocellular adenoma + hepatoblastoma + hepatocellular carcinoma; dosed 105 weeks; study length 105 weeks
reported.property: TD50 (mg/kg/day)
Lab book: enter the figure in mg/kg/day, no units written.

Quick one: TD50 for [O]=[Mo](=[O])=[O] ?
11.7
